The measured values listed here are drawn from PubChem BioAssay (NCI).

- Test system: KM20L2 colon
- ASSAY_NOTES: NCI tumour cell line growth inhibition, 48 h
Listed next: entries and their corresponding TGI.
MEASURE_NAME: TGI

[[record]]
molecule = "N#CC(C#N)=c1ccc(=C2NCC3CCCN23)cc1 (stereo not given)"
measure_name = "TGI"
experimental_value = "> 100 µM"

[[record]]
molecule = "CC(C)=CCCc1c(C)ccc2c1C(=O)C(=O)C(C(C)C)=C2"
measure_name = "TGI"
experimental_value = "> 22 µM"

[[record]]
molecule = "O=C1NC2(CCCCC2)C2CCCCC(O)C12 (stereo not given)"
measure_name = "TGI"
experimental_value = "> 100 µM"

[[record]]
molecule = "CC1(C)OC(=O)C(=Cc2ccc(O)cc2)C(=O)O1"
measure_name = "TGI"
experimental_value = "> 100 µM"

[[record]]
molecule = "O=C(CSC(=S)N1CCCCC1)Nc1nc2c(s1)CCCC2"
measure_name = "TGI"
experimental_value = "> 100 µM"


* * *

Listed next: entries and their corresponding TGI.
- System: MDA-N
- ASSAY_NOTES: NCI tumour cell line growth inhibition, 48 h
MEASURE_NAME: TGI (µM)

[[record]]
molecule = "C/C=C/C(C#N)(/C=C/c1ccccc1)OP1(=O)OC(c2ccccc2)C(C)N1C (centres undefined)"
measure_name = "TGI"
unit_of_measure = "µM"
experimental_value = 39

[[record]]
molecule = "O=c1cc(-c2cccc(O)c2)[nH]c2cc3c(cc12)OCO3"
measure_name = "TGI"
unit_of_measure = "µM"
experimental_value = 1.07

[[record]]
molecule = "N#CC(C#N)=C1C(=Cc2ccc(OCCCCCCCCCCSSCCCCCCCCCCOc3ccc(C=C4C(=C(C#N)C#N)c5ccccc5C4=C(C#N)C#N)cc3)cc2)C(=C(C#N)C#N)c2ccccc21"
measure_name = "TGI"
unit_of_measure = "µM"
experimental_value = 88.3

[[record]]
molecule = "COc1cccc2c1C(=O)C1=C(C2=O)C(O)CC(C)(C)O1 (centres undefined)"
measure_name = "TGI"
unit_of_measure = "µM"
experimental_value = 36


* * *

- Tested on: SK-MEL-2 melanoma
- ASSAY_NOTES: NCI tumour cell line growth inhibition, 48 h
Listed next: entries and their corresponding TGI.
MEASURE_NAME: TGI (µM)

[[record]]
compound = "Cn1c(=O)c2c3ccccc3n(C)c2n(C)c1=O"
inequality_symbol = ">"
experimental_value = 100

[[record]]
compound = "CC(C)(C)c1cc(C(=O)/C=C/c2c(Cl)cccc2Cl)cc(C(C)(C)C)c1O"
inequality_symbol = "="
experimental_value = 26.4

[[record]]
compound = "CC1(C)CCc2ccc(OCCC(=O)O)cc2O1"
inequality_symbol = ">"
experimental_value = 100

[[record]]
compound = "CC1=C(C(=O)OCCO[N+](=O)[O-])C(c2cccc([N+](=O)[O-])c2)C(C(=O)OC(C)C)=C(C)N1 (stereo not given)"
inequality_symbol = "="
experimental_value = 28

[[record]]
compound = "CN(C)c1ccc(C2CC(c3ccc4ccccc4c3O)=NN2)cc1 (stereo not given)"
inequality_symbol = ">"
experimental_value = 100


* * *

- System: A549 NSCLC
- ASSAY_NOTES: NCI tumour cell line growth inhibition, 48 h
MEASURE_NAME: TGI

[[record]]
molecule = "COc1cc2nc(-c3ccc(C(F)(F)F)cc3)cc(OCCCN3CCC(O)CC3)c2cc1OC"
experimental_value = "18.4 µM"

[[record]]
molecule = "O=C1C2=C(SCCS2)C(=O)c2ccccc21"
experimental_value = "3.83 µM"

[[record]]
molecule = "CCNC1C2(CCCCC2)NC(=O)C12CCCCC2 (stereo not drawn)"
experimental_value = "> 100 µM"

[[record]]
molecule = "CCN(CC)c1ccc2cc(C(N)=O)c(=N)oc2c1"
experimental_value = "> 100 µM"

[[record]]
molecule = "C=C(C)[C@@H]1CCC2=C[C@@H](OC2=O)[C@@H](C(=C)C)C2=CC(C(=O)O)=C(C1)O2"
experimental_value = "> 100 µM"

[[record]]
molecule = "COc1ccc(NC(=S)Nc2cc(C)cc(C)n2)cc1"
experimental_value = "> 100 µM"

[[record]]
molecule = "CC1(C)OC(=O)C(=Cc2ccc(O)cc2)C(=O)O1"
experimental_value = "> 100 µM"

[[record]]
molecule = "S=C1NCCN1"
experimental_value = "> 100 µM"

